Where these numbers come from: patent US20140018537A1

Biological target: human GPR119 (Homo sapiens, UniProt Q8TDV5)
Construct: expressed in transfected cells
Sequence (Q8TDV5 whole entry): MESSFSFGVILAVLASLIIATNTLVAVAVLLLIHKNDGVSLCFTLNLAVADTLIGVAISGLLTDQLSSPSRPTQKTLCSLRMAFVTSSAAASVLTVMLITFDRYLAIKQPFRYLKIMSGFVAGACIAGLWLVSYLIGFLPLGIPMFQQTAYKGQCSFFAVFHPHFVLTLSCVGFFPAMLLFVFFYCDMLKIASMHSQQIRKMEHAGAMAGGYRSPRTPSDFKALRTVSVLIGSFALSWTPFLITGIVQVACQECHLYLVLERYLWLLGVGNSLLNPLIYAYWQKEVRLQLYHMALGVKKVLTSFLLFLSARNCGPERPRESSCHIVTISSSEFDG
Test: Intracellular cAMP increase in human GPR119 introduced cells (HitHunter cAMP XS+ Assay)
Assay type: cell-based
Conditions: Table 16; hGPR119 stable cells, tetracycline-induced, 30 minutes at 37° C., intracellular cAMP
Recorded metric: EC50 (nM)

[1] CC(C)(C)OC(=O)N1CCC(c2ccc(COc3ccc(S(C)(=O)=O)cc3)cn2)CC1
[2] CC(C)(C)OC(=O)N1CCC(c2ccc(COc3ccc(S(C)(=O)=O)cc3)nc2)CC1
Prompt: Just curious, which one has the larger EC50 reading, 1 or 2 ? // caller expects the label of the chosen entry
Response: 1
